Where these numbers come from: paper PMC11822212

Reported Percent viability by item:
test system: MKL-2 cells (VP-MCC); format: cell-based, human
// note: answer is a bare numeric in %

Some solved entries appear below for comparison.
| substance | Percent viability / % |
| --- | --- |
| CAAAGGAAACCAACAAUAAtt (CAAAGGAAACCAACAAUAATT; chemistry not given here) | 80.7 |
| AAAUGUUGAUCUCCUUUCC (chemistry not given here) | 84.7 |
| AGAUCAACCCAGAUAACUAtt (AGAUCAACCCAGAUAACUATT; chemistry not given here) | 48.5 |
| GCUUGUACCUCAUAUCAGAtt (GCUUGUACCUCAUAUCAGATT; chemistry not given here) | 48.4 |

In the following, a different substance is considered.
Percent viability lookup needed for UGAAUGUAGAGAUGCGGUG (chemistry not given here) , thanks.
74.1

----------
test system: WAGA cells (VP-MCC); assay: qHTS cell viability (CellTiter-Glo, 72 h; primary and follow-up small molecule screen); type: cell-based, human
Counter-ions that a name gives are not always drawn.
Output 1.0 for records whose WAGA_AUC is lower than 400, 0.0 for records at or above 400.

# example entries with known answers
| compound | category |
| --- | --- |
| CN(C)CCc1c[nH]c2ccc(O)cc12 [Bufotenine] | 0.0 |
| COC[C@H]1OC(=O)c2coc3c2[C@@]1(C)C1=C(C3=O)[C@@H]2CC[C@H](O)[C@@]2(C)C[C@H]1OC(C)=O [17_-hydroxy Wortmannin] | 0.0 |
| C#CCN(C)[C@H](C)Cc1ccccc1 [Selegiline hydrochloride] | 0.0 |
| CC(Cc1ccccc1)NCCn1cnc2c1c(=O)n(C)c(=O)n2C (centres unmarked) [Fenethylline hydrochloride] | 0.0 |
| Cc1ncc(CNC(=O)N(CCCl)N=O)c(N)n1 [Nimustine] | 0.0 |
| O=c1cccc2n1C[C@@H]1CNC[C@H]2C1 [Cytisine] | 1.0 |
| Cc1ccc([N+](=O)[O-])[c]2c1[O][Hg]2 [Nitromersol] | 1.0 |
| CN(C)C(=O)Nc1ccc(Cl)c(Cl)c1 [Diuron] | 1.0 |

Shifting focus to the compound that follows.
is_below(WAGA_AUC, 400) for N[C@@H](Cc1ccc(N(CCCl)CCCl)cc1)C(=O)O [Melphalan] ?
0.0

----------
tested on: MKL-1 cells (VP-MCC); experiment: qHTS cell viability (CellTiter-Glo, 72 h; primary and follow-up small molecule screen); type: cell-based, human; details: follow-up screen; MKL-1; replicate 3
Output 1 (yes) for records whose Area under the dose-response curve (AUC) MKL-1 Replicate 3 is lower than 300, 0 (no) for records at or above 300.

| molecule | category |
| --- | --- |
| CC(=O)O[C@]1(C(C)=O)CC[C@H]2[C@@H]3C=C(C)C4=CC(=O)CC[C@]4(C)[C@H]3CC[C@@]21C [Megestrol acetate] | 0 (no) |
| CC(C)=CCC[C@]1(C)C=Cc2c(O)c3c(c(CC=C(C)C)c2O1)O[C@]12C(=C[C@@H]4C[C@H]1C(C)(C)O[C@@]2(C/C=C(/C)C(=O)O)C4=O)C3=O [GAMBOGIC ACID] | 0 (no) |
| CN(C)C(=S)SSC(=S)N(C)C [Thiram] | 1 (yes) |
| CO[C@H]1/C=C/O[C@@]2(C)Oc3c(C)c(O)c4c(O)c(c(/C=N/N5CCN(C6CCCC6)CC5)c(O)c4c3C2=O)NC(=O)/C(C)=C\C=C\[C@H](C)[C@H](O)[C@@H](C)[C@@H](O)[C@@H](C)[C@H](OC(C)=O)[C@@H]1C [Rifapentine] | 0 (no) |

is_below(Area under the dose-response curve (AUC) MKL-1 Replicate 3, 300) for COc1c(C)c2c(c(O)c1C/C=C(\C)CCC(=O)OCCN1CCOCC1)C(=O)OC2 [Mycophenolate mofetil] ?
0 (no)

Further, for CC[C@H]1CN2CCc3cc(OC)c(OC)cc3[C@@H]2C[C@@H]1C[C@H]1NCCc2cc(OC)c(OC)cc21 [Emetine] ?
0 (no)

----------
tested on: MCC13 cells (VN-MCC); assay: qHTS cell viability (CellTiter-Glo, 72 h; primary and follow-up small molecule screen); assay type: cell-based, human; details: MCC13, 72h, Log (M) -7.72207
observed property: Percent viability
Quick note: unit goes after the number.

| compound | study target | reported value |
| --- | --- | --- |
| CCS(=O)(=O)c1cccc(-c2cc(C(=O)NC3CCN(C)CC3)c(C)c3[nH]c4ncc(C)cc4c23)c1 [TAK-901, reference compound] | MCC13 cells (VN-MCC) | 113.0% |
| Cc1cc(Nc2cc(N3CCN(C)CC3)nc(Sc3ccc(NC(=O)C4CC4)cc3)n2)[nH]n1 [Tozasertib, reference compound] | MCC13 cells (VN-MCC) | 85.9% |
| CCn1cc(-c2ccnc3[nH]c(-c4cccc(CN(C)C)c4)cc23)c(-c2ccc(NC(=O)N(C)C)cc2)n1 [GSK-1070916A, reference compound] | MCC13 cells (VN-MCC) | 113.8% |

In the following, a different compound is considered.
Percent viability lookup needed for O=C(Nc1cccc(Cl)c1)Nc1ncc(CCNc2ncnc3ccsc23)s1 [SNS-314, reference compound] , thanks.
100.8%

----------
test system: MKL-2 cells (VP-MCC); experiment: qHTS cell viability (CellTiter-Glo, 72 h; primary and follow-up small molecule screen); format: cell-based, human; settings: MKL2, 72h, Log (M) -5.33646
Reported Percent viability by item:
Quick note: unit goes after the number.

Some solved entries appear below for comparison.
| compound | Percent viability |
| --- | --- |
| CCS(=O)(=O)c1cccc(-c2cc(C(=O)NC3CCN(C)CC3)c(C)c3[nH]c4ncc(C)cc4c23)c1 [TAK-901, reference compound] | 3.8% |
| Cc1cc(Nc2cc(N3CCN(C)CC3)nc(Sc3ccc(NC(=O)C4CC4)cc3)n2)[nH]n1 [Tozasertib, reference compound] | 29.1% |
| O=C(Nc1cccc(Cl)c1)Nc1ncc(CCNc2ncnc3ccsc23)s1 [SNS-314, reference compound] | 20.8% |

In the following, a different compound is considered.
Percent viability lookup needed for CCn1cc(-c2ccnc3[nH]c(-c4cccc(CN(C)C)c4)cc23)c(-c2ccc(NC(=O)N(C)C)cc2)n1 [GSK-1070916A, reference compound] , thanks.
1.0%

----------
test system: MCC26 cells (VN-MCC); test: qHTS cell viability (CellTiter-Glo, 72 h; primary and follow-up small molecule screen); format: cell-based, human; conditions: NPC library; qHTS dose-response AUC, MCC26
observed property: MCC26_AUC
Give the figure only, with no unit attached.

| compound | reported value |
| --- | --- |
| CCOC(=O)[C@H](CCc1ccccc1)N[C@@H](C)C(=O)N1CCC[C@H]1C(=O)O [Enalapril] | 507.531 |
| CCCC(=O)OC[C@@H](OC(=O)CCC)[C@@H](OC(=O)CCC)[C@H](Cn1c2nc(=O)[nH]c(=O)c-2nc2cc(C)c(C)cc21)OC(=O)CCC [Riboflavin tetrabutyrate] | 500.723 |
| C[C@@H]1CN(CCCn2c3ccccc3c3ccccc32)C[C@H](C)N1.Cl.Cl [Rimcazole dihydrochloride] | 457.379 |

MCC26_AUC lookup needed for C#C[C@]1(OC(C)=O)CC[C@H]2[C@@H]3CCC4=CC(=NO)CC[C@@H]4[C@H]3CC[C@@]21CC (mixture of isomers) [Norgestimate] , thanks.
396.073

----------
test system: MCC13 cells (VN-MCC); experiment: qHTS cell viability (CellTiter-Glo, 72 h; primary and follow-up small molecule screen); assay type: cell-based, human; settings: MIPE library, 11-point DRC, sheet S2E
observed property: MCC13_AUC
Give the figure only, with no unit attached.

MCC13_AUC lookup needed for CC(=O)SCC(Cc1ccccc1)C(=O)NCC(=O)OCc1ccccc1 (stereo not drawn) , thanks.
461.58

----------
test system: MKL-1 cells (VP-MCC); experiment: qHTS cell viability (CellTiter-Glo, 72 h; primary and follow-up small molecule screen); format: cell-based, human
Structures can show the parent of a compound that is named as a salt.
observed property: Area under the dose-response curve (AUC) MKL-1 Replicate 3
Give the figure only, with no unit attached.

| compound | study target | reported value |
| --- | --- | --- |
| COC[C@H]1OC(=O)c2coc3c2[C@@]1(C)C1=C(C3=O)[C@@H]2CC[C@H](O)[C@@]2(C)C[C@H]1OC(C)=O [17_-hydroxy Wortmannin] | MKL-1 cells (VP-MCC) | 460.6 |
| O=C1c2c(O)ccc(O)c2C(=O)c2c(NCCNCCO)ccc(NCCNCCO)c21 [Mitoxantrone dihydrochloride] | MKL-1 cells (VP-MCC) | 172.4 |
| COc1cc(O)c2c(c1)oc(=O)c1c3cc(O)c(O)cc3oc21 | MKL-1 cells (VP-MCC) | 448.6 |

In the following, a different compound is considered.
Query Area under the dose-response curve (AUC) MKL-1 Replicate 3 on MKL-1 cells (VP-MCC) for "O=c1cccc2n1C[C@@H]1CNC[C@H]2C1"
481.7
